Attribution: the supplement of paper PMC10567573

B1: SOAT2 (parent)
chain: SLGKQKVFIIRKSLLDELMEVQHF

- Variants of: B1
- testDetails: protein stability index of a GFP-peptide fusion (GPS, HEK-293T) (PSI 1-6); higher = more stable;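 also: lentivirally expressed fusions sorted by FACS into six bins by GFP to DsRed ratio, PSI derived from sequencing read proportions per bin multiplied by bin number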
- conditionParameters: c terminus: a fixed tail appended
I would appreciate it if you labelled entries T when protein stability index is 2 or higher, otherwise F.

seqText: SLGKFKVFIIRKSLLDELMEVQHF [Q5F]
labelValue: T

seqText: SLGKQKVFIIRKSLLDELMEVQSF [H23S]
labelValue: F

In: In plain terms: is recorded protein stability index at least 2 for SLGAQKVFIIRKSLLDELMEVQHF [K4A] ?
Out: F

In: Okay, and SLGKQKVFIIRKSLLDELMEVQAF [H23A] ?
Out: T

In: Okay, and SLGKQKVFIIRKSLLDELMEVQWF [H23W] ?
Out: T

In: Okay, and SLGKQKVFIIRKFLLDELMEVQHF [S13F] ?
Out: T

In: Okay, and SLGKQKVFIIRKSLLDELMEVQHW [F24W] ?
Out: T

In: Okay, and SLGKQKVFIIRKSLLDFLMEVQHF [E17F] ?
Out: T
